Target: FcRn (FCGRT&B2M) (UniProt P55899)
Assay: SPR, steady state model, Mean

substance	Kd (nM)
HUMIRA (adalimumab) (antibody)	778

----------
Biological target: FcγRIIB (CD32b) (UniProt P31994)
Assay: SPR, steady state model, Mean
pKd: −log10 of the molar value.

substance	pKd
HUMIRA (adalimumab) (antibody)	5.52

----------
Target: FcγRIIIA (CD16a, F167)
Assay: SPR, heterogenous ligand model, Mean KD1
endpoint label: Kd (nM)

substance	target system	units	result value
HUMIRA (adalimumab) (antibody)	FcγRIIIA (CD16a, F167)	nM	260

----------
Target: FcγRI (CD64) (UniProt P12314)
Assay: SPR, heterogenous ligand model, Mean KD1
pKd: −log10 of the molar value.

substance	pKd
HUMIRA (adalimumab) (antibody)	9.25
